Test summary: Clearance in human hepatocytes assessed per million cells at 1 uM after 5 to 90 mins by LC-MS/MS analysis
Type: ADME, cell-based, Hepatocyte
Condition set: read-out: CLH

>  <Compound>
CC(Nc1c(NCCCCCC(=O)NO)c(=O)c1=O)C12CC3CC(CC(C3)C1)C2 (centres undefined)

>  <hepatocyte CLint at 1 µM>
< 5 µL/min/1e6 cells

$$$$
>  <Compound>
CC[C@H](Nc1c(NCCCCCC(=O)NO)c(=O)c1=O)c1ccccc1

>  <hepatocyte CLint at 1 µM>
< 5 µL/min/1e6 cells

$$$$
>  <Compound>
Cc1ccc(Nc2c(NC(C)CCCCC(=O)NO)c(=O)c2=O)cc1 (racemic)

>  <hepatocyte CLint at 1 µM>
< 6.5 µL/min/1e6 cells

$$$$
>  <Compound>
CC(CCCCC(=O)NO)Nc1c(Nc2ccccc2)c(=O)c1=O (racemic)

>  <hepatocyte CLint at 1 µM>
< 5 µL/min/1e6 cells

$$$$
>  <Compound>
Cc1ccccc1[C@H](C)Nc1c(NCCCCCC(=O)NO)c(=O)c1=O

>  <hepatocyte CLint at 1 µM>
< 5 µL/min/1e6 cells

$$$$
>  <Compound>
C[C@H](CCCCC(=O)NO)Nc1c(Nc2ccc(OC(F)(F)F)cc2)c(=O)c1=O

>  <hepatocyte CLint at 1 µM>
31 µL/min/1e6 cells

$$$$
>  <Compound>
O=C(CCCCCNc1c(NCc2ccccc2)c(=O)c1=O)NO

>  <hepatocyte CLint at 1 µM>
< 4.8 µL/min/1e6 cells

$$$$
>  <Compound>
CN(C)c1ccc(Nc2c(NCCCCCC(=O)NO)c(=O)c2=O)cc1

>  <hepatocyte CLint at 1 µM>
< 5 µL/min/1e6 cells

$$$$
>  <Compound>
O=C(CCCCCCNc1c(Nc2ccccc2)c(=O)c1=O)NO

>  <hepatocyte CLint at 1 µM>
< 5 µL/min/1e6 cells

$$$$
>  <Compound>
C[C@@H](Nc1c(NCCCCCC(=O)NO)c(=O)c1=O)c1ccccc1

>  <hepatocyte CLint at 1 µM>
< 5 µL/min/1e6 cells

$$$$
>  <Compound>
O=C(CCCCNc1c(Nc2ccccc2)c(=O)c1=O)NO

>  <hepatocyte CLint at 1 µM>
< 5 µL/min/1e6 cells

$$$$
>  <Compound>
COc1cc(Nc2c(NCCCCCC(=O)NO)c(=O)c2=O)ccc1N(C)C

>  <hepatocyte CLint at 1 µM>
< 5 µL/min/1e6 cells

$$$$
>  <Compound>
Cc1cccc([C@@H](C)Nc2c(NCCCCCC(=O)NO)c(=O)c2=O)c1

>  <hepatocyte CLint at 1 µM>
< 5 µL/min/1e6 cells

$$$$
>  <Compound>
O=C(CCCCCCC(=O)Nc1ccccc1)NO

>  <hepatocyte CLint at 1 µM>
< 5 µL/min/1e6 cells

$$$$
